# testDetails: The drug is tested on the gut metagenome community of MV03 with ENA study accession number: PRJEB31790 and ENA sample accession number: SAMEA5537484 for biotransformation. The drug concentrations were measured over 9 timepoints collected between 0 and 24 hours of incubation by liquid-chromatography-coupled mass spectrometry (LC–MS)
# Type: ADME
# Set-up: dose 2 uM, timepoint 0, 1, 2, 4, 6, 8, 12, 18, 24 hours
# conditionSummary: 2 µM
resultType: Bacterial Biotransformation

input: Sample C[C@@H]1C[C@H]2[C@@H]3CCC4=CC(=O)C=C[C@]4(C)[C@@]3(F)[C@@H](O)C[C@]2(C)[C@@]1(O)C(=O)CO — what was its Bacterial Biotransformation?
output: Compound metabolized

input: Sample CC(=O)OCC(CCn1cnc2cnc(N)nc21)COC(C)=O — what was its Bacterial Biotransformation?
output: Compound metabolized

input: Sample C#C[C@]1(OC(C)=O)CC[C@H]2[C@@H]3CCC4=CC(=O)CC[C@@H]4[C@H]3CC[C@@]21C [NORETHINDRONE ACETATE] — what was its Bacterial Biotransformation?
output: Compound metabolized
